- ASSAY: binders of probe aHhip on microarray, primary screen, stem cell growth factor project, biochemical, small-molecule microarray, fluorescence 635/667 (AID 1087);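 note: score merges spot fluorescence at 667nm with spot signal to noise ratio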
- CONDITIONS: higher = more signal
Please respond with reported composite z-score for every item in the list.
One number for each entry.

List composite z-score for every entry below, keeping the order given.
1. CC(C)CNC(=O)[C@@]1(C)c2ccccc2C(=O)N(C(C)C)[C@H]1c1ccc(CO)cc1
2. CN(C)CCCN1C(=O)[C@@]2(c3ccc([N+](=O)[O-])cc3)CC(=O)N(C3CCCCC3)[C@@H]2c2ccc(CO)cc21
3. CC(C)(C)OC(=O)CC[C@@]1(C(N)=O)N=C(c2ccc(OCCCO)cc2)O[C@@H]1c1ccccc1N=[N+]=[N-]
4. O=c1cccc(-c2cccc3ccccc23)o1

[0.0424, -0.353, -0.0645, 0.0053]

====

Please respond with reported composite z-score for every item in the list.
- TARGET SYSTEM: Dihydroorotate dehydrogenase (quinone), mitochondrial (Plasmodium falciparum (isolate 3D7)) (UniProt Q08210)
- Sequence (Q08210 whole entry, looked up): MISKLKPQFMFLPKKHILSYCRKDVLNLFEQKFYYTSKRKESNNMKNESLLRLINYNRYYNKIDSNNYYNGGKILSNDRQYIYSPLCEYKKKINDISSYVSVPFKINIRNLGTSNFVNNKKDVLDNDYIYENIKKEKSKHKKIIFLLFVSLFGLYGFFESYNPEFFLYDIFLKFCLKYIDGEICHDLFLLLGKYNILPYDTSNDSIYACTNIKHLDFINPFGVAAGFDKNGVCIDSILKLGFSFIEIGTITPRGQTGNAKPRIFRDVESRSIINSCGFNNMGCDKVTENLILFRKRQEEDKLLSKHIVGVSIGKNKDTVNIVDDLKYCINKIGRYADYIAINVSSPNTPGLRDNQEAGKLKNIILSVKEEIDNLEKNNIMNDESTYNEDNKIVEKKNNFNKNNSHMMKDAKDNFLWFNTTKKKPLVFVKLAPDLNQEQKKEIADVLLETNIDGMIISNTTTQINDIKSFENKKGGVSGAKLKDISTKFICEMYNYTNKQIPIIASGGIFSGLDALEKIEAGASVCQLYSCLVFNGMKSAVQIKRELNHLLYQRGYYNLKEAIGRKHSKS
- ASSAY: inhibition of P. falciparum DHODH – biochemical, C-terminal His tag, absorbance 600 nm, primary screen (AID 1175);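 note: recombinant parasite enzyme with a five histidine tag at its C terminus; test concentration not given here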
- CONDITIONS: PfDHODH enzyme, DCIP absorbance 600 nm; higher = more signal, called active from +8 up or from −8 down
Active and inactive are the calls of the source.

Below: 7 compounds and their reported composite z-score.
{"COMPOUND": "COCC1C2CC[C@H]3C(OCc4ccc(F)cc4C(F)(F)F)OC[C@]4(C)[C@H]3C2=C(CN4C(=O)OC(C)(C)C)[C@H](C)C1COC (stereo partly drawn)", "composite z-score": "-0.908 (inactive)"}
{"COMPOUND": "C=C(CCCC)/C(=C/C[C@H](OC(C)=O)c1ccc(CO)o1)c1cc(C(=O)OC)ccc1OC", "composite z-score": "-2.01 (inactive)"}
{"COMPOUND": "O=C1OCCC/C=C\\[C@H]2OC34C=CCN(Cn5nnc6ccccc65)C(=O)[C@H]3N(CCCO)C(=O)[C@@H]4C12 (stereo partly drawn)", "composite z-score": "-0.0502 (inactive)"}
{"COMPOUND": "O=C(NCC(O)CO)[C@@]1(Cc2ccccc2)N=C(c2ccc(OCCCO)cc2)O[C@H]1c1ccccc1 (stereo partly drawn)", "composite z-score": "-0.507 (inactive)"}
{"COMPOUND": "COc1cc(CO)cc(I)c1O[C@H]1C=C(C(=O)NCCO)C[C@@H](N(CCc2cccc(F)c2)C(=O)CCC2CCCC2)[C@@H]1O", "composite z-score": "-0.459 (inactive)"}
{"COMPOUND": "C=C[C@H](OC)[C@@H](OC(=O)Nc1ccc(SC)cc1)c1ccc(OCCO)cc1", "composite z-score": "-1.02 (inactive)"}
{"COMPOUND": "[N-]=[N+]=Nc1ccccc1[C@H]1OC(c2ccc(OCCCO)cc2)=N[C@@]1(CCS(=O)(=O)c1ccccc1)C(=O)N1CCOCC1", "composite z-score": "0.499 (inactive)"}

Switching to the query record.
Reported composite z-score for `Cc1ccc(N2C(=O)c3ccccc3[C@](C)(C(=O)NCCN3CCOCC3)[C@@H]2c2ccc(CO)cc2)nc1` : what is it? 0.255 (inactive)

====

- ASSAY: probe aWnt5a binding to arrayed compounds – biochemical, biotinylated probe, 635/667 nm fluorescence, primary screen (AID 1113);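 note: score merges 667 nm fluorescence intensity with signal-to-noise per printed feature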
- CONDITIONS: small-molecule microarray, higher = more signal
READOUT KIND: composite z-score
Give bare numbers.

List composite z-score for every entry below, keeping the order given.
1. NC(=O)NCC#Cc1ccc2c(c1)[C@]1(C(=O)N2)[C@H](c2ccccc2OCCO)N2[C@H](c3ccccc3)[C@H](c3ccccc3)OC(=O)[C@H]2[C@@H]1C(=O)N1CCCCCCC1
2. [N-]=[N+]=NCc1ccccc1C[C@]1(C(=O)NCCN2CCOCC2)N=C(c2ccc(OCCCO)cc2)O[C@H]1c1ccccc1CN=[N+]=[N-]
3. CC(C)CNC(=O)[C@@]1(C)c2ccccc2C(=O)N(C(C)C)[C@H]1c1ccc(CO)cc1

[1.18, -0.124, -0.191]

List composite z-score for every entry below, keeping the order given.
1. O=C1C2C=CC(C(O)C3CC=CCC3)N(n3cnnc3)C2C(=O)N1Cc1ccccc1 (centres undefined)
2. COCCCNC(=O)[C@]1(Cc2ccccc2N=[N+]=[N-])N=C(c2ccc(OCCCO)cc2)O[C@@H]1c1ccccc1CN=[N+]=[N-]
3. C/C=C/[C@H](CCn1cc([C@H](O)c2ccccc2)nn1)[Si](C)(C)c1ccc(OC)cc1
4. [N-]=[N+]=NCc1ccccc1C[C@]1(C(=O)N2CCOCC2)N=C(c2ccc(OCCCO)cc2)O[C@H]1c1ccccc1
5. O=C(NCC(F)(F)F)[C@@H]1c2ccccc2C(=O)N(Cc2ccccc2)[C@H]1c1ccc(CO)cc1
6. CC[C@@H]1C=C(C(=O)O)[C@H](c2ccc(C(C)C)cc2)N1S(=O)(=O)c1ccc(C)cc1
7. CCOC(=O)N1C(c2ccc(OCCCO)cc2)=NC(C(=O)OC)N1C(=O)OCC (centres undefined)
8. COc1ccc([Si](C)(C)[C@H]2[C@H](CC(=O)N3CCC[C@H]3CO)O[C@@]3(C(=O)N(Cc4cccc(N5CCC5=O)c4)c4ccccc43)[C@@H]2C)cc1

-0.154
0.0952
-0.233
-0.0203
-0.158
0.019
-0.0685
-0.0203

List composite z-score for every entry below, keeping the order given.
1. O=C(N1CCCCC1)[C@]1(CCS(=O)(=O)c2ccccc2)N=C(c2ccc(OCCCO)cc2)O[C@@H]1c1ccccc1
2. O=c1cccc(-c2cccc3ccccc23)o1
3. CCOC(=O)C[C@H]1[C@H](OC(=O)c2ccccc2-c2ccccc2)[C@@H](NC(=O)c2ccc(-c3ccccc3)cc2)c2cc(OCCCO)ccc2N1C(=O)c1ccccc1

1: 0.055; 2: -0.0751; 3: -0.16

List composite z-score for every entry below, keeping the order given.
1. CCCC[C@H]1OB(O)C[C@H]2C1=C(C)Cn1c(=O)n(-c3ccccc3)c(=O)n12
2. COCCOC(=O)N1C(=O)[C@@]2(c3cc(C#Cc4ccc(OC)cc4)ccc31)[C@H](c1ccc(O)cc1)N1[C@H](c3ccccc3)[C@H](c3ccccc3)OC(=O)[C@H]1[C@@H]2C(=O)N1CCN(c2ncccn2)CC1
3. Cc1ccc([C@H]2C(C(=O)O)=C[C@@H](C(C)C)N2S(=O)(=O)c2ccc(C)cc2)cc1
4. C=CCC(OC(C)=O)[C@@H]1[C@@H](N(Cc2ccc(-c3cccc(C(F)(F)F)c3)o2)C(=O)c2ccc(C)cc2)c2cc(OCCCO)ccc2N1C(=O)c1ccc2ccccc2n1 (some centres undefined)
5. COCCOC(=O)N1C(=O)[C@@]2(c3cc(C#Cc4ccc(OC)cc4)ccc31)[C@H](c1ccc(OCCO)cc1)N1[C@H](c3ccccc3)[C@H](c3ccccc3)OC(=O)[C@H]1[C@@H]2C(=O)N1CCc2cc(OC)c(OC)cc2C1
6. CC(C)OC(=O)C1=CCC(c2cccc(Cl)c2)O1 (centres undefined)
7. CC(C)N1C(=O)c2ccccc2[C@](C)(C(=O)NCCCN(C)C)[C@@H]1c1ccc(CO)cc1
8. O=C(NCC(O)CO)[C@]1(CCS(=O)(=O)c2ccccc2)N=C(c2ccc(OCCCO)cc2)O[C@@H]1c1ccccc1 (some centres undefined)

1. -0.215
2. -0.0846
3. 0.0597
4. -0.0478
5. -0.203
6. 0.0654
7. -0.152
8. -0.0846

====

- TARGET SYSTEM: NADPH oxidase 2 (Homo sapiens) (UniProt P04839)
- Sequence (P04839 whole entry, looked up): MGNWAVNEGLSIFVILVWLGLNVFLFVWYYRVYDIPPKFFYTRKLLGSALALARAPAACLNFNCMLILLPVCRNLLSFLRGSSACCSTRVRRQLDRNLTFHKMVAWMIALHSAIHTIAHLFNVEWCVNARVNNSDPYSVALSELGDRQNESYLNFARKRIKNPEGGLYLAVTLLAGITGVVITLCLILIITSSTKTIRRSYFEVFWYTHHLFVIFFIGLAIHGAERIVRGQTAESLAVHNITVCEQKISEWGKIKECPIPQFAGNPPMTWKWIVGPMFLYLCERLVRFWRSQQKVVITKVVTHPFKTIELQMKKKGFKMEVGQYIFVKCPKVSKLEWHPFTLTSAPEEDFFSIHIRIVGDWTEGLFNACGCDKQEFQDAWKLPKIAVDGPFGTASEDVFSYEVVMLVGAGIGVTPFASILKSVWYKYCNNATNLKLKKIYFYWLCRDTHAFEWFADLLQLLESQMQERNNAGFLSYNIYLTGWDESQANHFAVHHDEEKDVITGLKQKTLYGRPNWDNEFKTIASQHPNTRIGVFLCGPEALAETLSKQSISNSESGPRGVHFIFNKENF
- ASSAY: compounds shifting NOX2 Amplex Red fluorescence – cell-based, HEK293-NOX2, PMA-stimulated, NOX inhibitor project, primary screen (AID 1159); note: test concentration not given here
- CONDITIONS: 45 min, higher = more signal, called active from +8 up or from −8 down
Calls of active or inactive are those of the source.
Please respond with reported z-score for every item in the list.

Below: 5 molecules and their reported z-score.
{"MOLECULE": "CCN(CC)c1ccc(N2CC=CC34O[C@@H]5C=CCCOC(=O)C5[C@H]3C(=O)N(CCCO)[C@@H]4C2=O)cc1 (stereo partly specified)", "z-score": "-0.0899 (inactive)"}
{"MOLECULE": "CC(C)NC(=O)[C@@H]1c2ccccc2C(=O)N(C2CCCCC2)[C@H]1c1ccc(CO)cc1", "z-score": "0.664 (inactive)"}
{"MOLECULE": "O=C1C[C@@](C(=O)O)(c2ccc([N+](=O)[O-])cc2)[C@@H](c2ccc(CO)cc2I)N1CC12CC3CC(CC(C3)C1)C2", "z-score": "1.11 (inactive)"}
{"MOLECULE": "C=CCNC(=O)[C@H]1[C@@H]2C(=O)O[C@@H](c3ccccc3)[C@@H](c3ccccc3)N2[C@@H](c2ccc(OCCO)cc2)[C@]12C(=O)N(C(=O)OCCOC)c1ccc(C#CC3(O)CCCCCC3)cc12", "z-score": "1.56 (inactive)"}
{"MOLECULE": "O=C1[C@H]2C=C(Br)[C@H](C[C@@H]2OCCOCCO)[C@@]12CO2", "z-score": "1.36 (inactive)"}

List z-score for every entry below, keeping the order given.
1. C=CCN1C(=O)[C@@]2(O[C@@H](CCO)[C@H]([Si](C)(C)c3ccc(OC)cc3)[C@H]2C)c2cc(N3C(=O)COc4ccccc43)ccc21
2. CC(C)C(=C=CC[C@H](O)c1ccccc1OCCO)CCO
3. C=CC[C@@]1(C(=O)NCc2ccccc2)N=C(c2ccc(OCCCO)cc2)O[C@@H]1c1ccccc1CN=[N+]=[N-]

1: -0.548 (inactive); 2: -0.353 (inactive); 3: -1.15 (inactive)

List z-score for every entry below, keeping the order given.
1. Cc1ccc(S[C@]2(C(=O)NCC(F)(F)F)CC(=O)N(C3Cc4ccccc4C3)[C@@H]2c2ccc(CO)cc2I)cc1
2. O[C@@H](Cc1ccccc1)[C@@H](/C=C/c1ccccc1)NCc1ccccc1Br
3. CCOC(=O)N1C(c2ccc(OCCCO)cc2)=NC(C(=O)OC)N1C(=O)OCC (stereo unspecified)
4. O=C1OCCC/C=C\[C@H]2OC34C=CCN(Cn5nnc6ccccc65)C(=O)[C@H]3N(CCCO)C(=O)[C@@H]4C12 (stereo partly specified)
5. C=CCN1Cc2ccccc2C[C@@]2(COC(c3ccc(OCCCO)cc3)=N2)C1=O
6. COCCOC(=O)N1C(=O)[C@@]2(c3ccccc31)[C@H](c1ccc(O)cc1)N1[C@H](c3ccccc3)[C@H](c3ccccc3)OC(=O)[C@H]1[C@@H]2C(N)=O
7. COC(=O)[C@@]1(Cc2ccc(F)cc2)[C@H]2c3cc(C(=O)N4CCCC4)n(Cc4ccc(Cl)c(C(F)(F)F)c4)c3C[C@H]2CN1C(=O)c1ccccc1
8. CS(=O)(=O)CCOC(=O)C1=CC(c2ccc(CO)cc2)=CC(c2cccs2)N(Cc2cccc(OC(F)(F)F)c2)C=C1C(=O)OCCS(C)(=O)=O (stereo unspecified)

0.994 (inactive)
-0.175 (inactive)
-1.43 (inactive)
0.821 (inactive)
-5.73 (inactive)
-0.198 (inactive)
0.71 (inactive)
-2.07 (inactive)

Sourced from PubChem BioAssay
